Test system: SDMA in human colon cancer cell line HCT116
Experiment: Cell symmetric dimethylarginine (SDMA) test, In-cell Western, HCT116 (MTAP wild-type)
Type: cell-based
Conditions: Homo sapiens, HCT-116, 96 h, IC50 score class, read-out: Cell 96 h SDMA Inhibition (HCT116-MTAP+/+) (score)
Source text: MAT2A catalyzes the reaction of L-methionine and ATP to generate SAM, inorganic phosphonic acid, and inorganic diphosphonic acid. SAM is an important methyl donor, and is a substrate of arginine methyltransferase 5 (PRMT5). PRMT5 catalyzes SDMA modification of multiple proteins within a cell. The intracellular SDMA modification level was detected by ICW (In-cell Western), and the inhibition of the test compound on the enzymatic activity of intracellular MAT2A was indirectly reflected. […]
pIC50: −log10 of the molar value.
measurement.label: pIC50

Below, 4 compounds whose answers are already recorded.
compound | assayed.system | test.result
Cc1cncc(-n2c(=O)c3nn(C)cc3c3ccc(C(F)(F)F)nc32)c1 | SDMA in human colon cancer cell line HCT116 | < 5.52
O=c1c2nn(C(F)F)cc2c2ccc(Cl)cc2n1-c1cccnc1 | SDMA in human colon cancer cell line HCT116 | 5.52 to 6.00
COc1cc2c3cn(C)nc3c(=O)n(-c3cccnc3)c2cc1Cl | SDMA in human colon cancer cell line HCT116 | < 5.52
Cn1cc2c(n1)c(=O)n(-c1cccnc1C(F)(F)F)c1cc(Cl)c(F)cc21 (single isomer, unassigned) | SDMA in human colon cancer cell line HCT116 | < 5.52

Quick check: pIC50 of O=c1c2nn(C3CCOC3)cc2c2ccc(C(F)(F)F)nc2n1-c1cccnc1 (centres unmarked) ? 5.52 to 6.00

Quick check: pIC50 of O=c1c2nn(C(F)F)cc2c2ccc(C(F)(F)F)nc2n1-c1cccc2[nH]ncc12 ? < 5.52

Quick check: pIC50 of O=c1c2nn(C(F)F)cc2c2cc(F)c(C3CC3)nc2n1-c1cccnc1C1CC1 ? < 5.52

Quick check: pIC50 of Cc1ncccc1-n1c(=O)c2nn(C)cc2c2ccc(C3CC3)nc21 ? 6.00 to 6.70

----------
Assay: Pharmacokinetic test in mice (IV and PO)
Type: in vivo
Conditions: mouse, plasma; BALB/c mice, PO 10 mg/kg
measurement.label: AUC (µM·h)
Could you give me the number in µM·h? Just the number is fine.

Below, 3 molecules whose answers are already recorded.
smiles.data | unit.spec | AUC
Cc1c2c(nn1C)c(=O)n(-c1cccnc1)c1nc(C(F)(F)F)ccc21 | µM·h | 65.2
CCn1nc2c(=O)n(-c3cccnc3)c3cc(Cl)ccc3c2c1C | µM·h | 22.5
O=c1c2nn(C(F)F)cc2c2cc(F)c(C3CC3)nc2n1-c1cccnc1C1CC1 | µM·h | 93.4

Here is the next item to consider.
Quick check: AUC of Cn1cc2c(n1)c(=O)n(-c1cccnc1C1CC1)c1cc(Cl)c(F)cc21 ? 219

----------
In this section, each of the compounds is paired with its reported IC50.
Target: hERG potassium current (Homo sapiens)
Sequence (Q12809 whole entry): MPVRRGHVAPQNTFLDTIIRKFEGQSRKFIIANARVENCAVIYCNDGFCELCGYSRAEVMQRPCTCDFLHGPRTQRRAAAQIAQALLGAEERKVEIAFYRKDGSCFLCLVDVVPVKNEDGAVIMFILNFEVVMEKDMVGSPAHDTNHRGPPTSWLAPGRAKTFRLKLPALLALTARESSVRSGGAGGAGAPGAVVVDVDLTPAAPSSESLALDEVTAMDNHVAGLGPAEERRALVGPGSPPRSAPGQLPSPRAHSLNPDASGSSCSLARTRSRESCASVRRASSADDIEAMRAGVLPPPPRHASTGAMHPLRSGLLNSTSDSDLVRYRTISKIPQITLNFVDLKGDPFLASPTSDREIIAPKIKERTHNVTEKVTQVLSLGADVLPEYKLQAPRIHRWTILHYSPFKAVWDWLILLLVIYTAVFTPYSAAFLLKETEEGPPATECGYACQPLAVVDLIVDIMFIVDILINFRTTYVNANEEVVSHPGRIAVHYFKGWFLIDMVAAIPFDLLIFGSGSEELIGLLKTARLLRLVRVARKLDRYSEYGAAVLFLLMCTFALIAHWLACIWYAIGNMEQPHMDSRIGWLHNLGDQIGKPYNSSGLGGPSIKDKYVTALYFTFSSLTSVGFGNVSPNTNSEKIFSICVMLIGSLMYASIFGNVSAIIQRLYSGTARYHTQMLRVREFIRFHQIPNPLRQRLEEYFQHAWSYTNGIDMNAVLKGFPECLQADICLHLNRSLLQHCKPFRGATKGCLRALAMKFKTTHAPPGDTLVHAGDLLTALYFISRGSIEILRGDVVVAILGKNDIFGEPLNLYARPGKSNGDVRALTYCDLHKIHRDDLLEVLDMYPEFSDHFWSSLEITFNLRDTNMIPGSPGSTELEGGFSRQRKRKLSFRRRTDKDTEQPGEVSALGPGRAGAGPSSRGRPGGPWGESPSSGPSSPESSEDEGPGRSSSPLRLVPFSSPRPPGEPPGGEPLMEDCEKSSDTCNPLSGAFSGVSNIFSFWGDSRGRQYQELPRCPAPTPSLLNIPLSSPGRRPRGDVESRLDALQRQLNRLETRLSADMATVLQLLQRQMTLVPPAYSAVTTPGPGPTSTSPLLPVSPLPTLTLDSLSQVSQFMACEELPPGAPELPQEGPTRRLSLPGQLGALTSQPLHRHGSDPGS
Test: hERG inhibition test (whole-cell patch clamp, Qpatch)
Settings: initial concentration 30 μM, 6 concentration points

Below, 2 compounds whose answers are already recorded.
compound | test.result
Cn1cc2c(n1)c(=O)n(-c1cccnc1)c1cc(Cl)ccc21 | > 30 µM
Cc1ncccc1-n1c(=O)c2nn(C)cc2c2ccc(C(F)(F)F)nc21 (single isomer, unassigned) | > 30 µM

Quick check: IC50 of Cn1cc2c(n1)c(=O)n(-c1cccc(O)c1)c1nc(C(F)(F)F)ccc21 ? > 30 µM

Quick check: IC50 of Cn1cc2c(n1)c(=O)n(-c1cccc3[nH]ncc13)c1cc(Cl)ccc21 ? > 40 µM
